The measured values listed here are drawn from patent US9296774B2.

Tested on: B16 malignant melanoma
Assay: Mouse transplant tumor, B16 malignant melanoma
Conditions: B16, 125 mg/kg once a day for 7 days
Experimental endpoint: Inhibition of tumor growth (%)

CC(=O)OCC1OC(OP(=O)(NCCCl)NCCCl)CC(Br)C1OC(C)=O (single isomer, unassigned) [Compound 5] | 76.4
COc1cc(C2c3cc4c(cc3C(C3OC(COC(C)=O)C(OC(C)=O)CC3Br)C3COC(=O)C23)OCO4)cc(OC)c1O (stereo not drawn) [Compound 14] | 76.2
CC(=O)OCC1OC(OP(=O)(O)N(CCCl)CCCl)CC(Br)C1OC(C)=O (stereo not drawn) [Compound 10] | 73.1
CC(=O)OCC1OC(Br)C(Br)CC1OC(C)=O (single isomer, unassigned) [Compound 3] | 76.8
CC(=O)OCC1OC(OP(=O)(NCCCl)NCCCl)C(Br)CC1OC(C)=O (single isomer, unassigned) [Compound 7] | 80.4
CC(=O)OCC1OC(OP(=O)(O)N(CCCl)CCCl)C(Br)CC1OC(C)=O (stereo not drawn) [Compound 12] | 79.5

###

Test system: B16 malignant melanoma
Assay: Mouse transplant tumor, B16 malignant melanoma
Conditions: B16, 125 mg/kg once a day for 7 days; body weight at start
Experimental endpoint: weight start

CC(=O)OCC1OC(OP(=O)(O)N(CCCl)CCCl)C(Br)CC1OC(C)=O (centres unmarked) [Compound 12] | 18.2
CC(=O)OCC1OC(OP(=O)(NCCCl)NCCCl)C(Br)CC1OC(C)=O (single isomer, unassigned) [Compound 7] | 18.3
CC(=O)OCC1OC(Br)C(Br)CC1OC(C)=O (single isomer, unassigned) [Compound 3] | 18.2
CC(=O)OCC1OC(OP(=O)(O)N(CCCl)CCCl)CC(Br)C1OC(C)=O (centres unmarked) [Compound 10] | 18.3
CC(=O)OCC1OC(OP(=O)(NCCCl)NCCCl)CC(Br)C1OC(C)=O (single isomer, unassigned) [Compound 5] | 18.3

###

Test system: MX-1 human breast cancer cells
Assay: Mouse transplant tumor, MX-1 human breast cancer
Conditions: 125 mg/kg once a day for 7 days
Below, each of the compounds is paired with its reported Inhibition of tumor growth value.
Experimental endpoint: Inhibition of tumor growth

CC(=O)OCC1OC(OP(=O)(O)N(CCCl)CCCl)CC(Br)C1OC(C)=O (stereo not drawn) | 73.2
COc1cc(C2c3cc4c(cc3C(C3OC(COC(C)=O)C(OC(C)=O)CC3Br)C3COC(=O)C23)OCO4)cc(OC)c1O (stereo not drawn) | 76.3
CC(=O)OCC1OC(OP(=O)(O)N(CCCl)CCCl)C(Br)CC1OC(C)=O (stereo not drawn) | 82.1
CC(=O)OCC1OC(OP(=O)(NCCCl)NCCCl)CC(Br)C1OC(C)=O (single isomer, unassigned) | 83.6
CC(=O)OCC1OC(Br)C(Br)CC1OC(C)=O (single isomer, unassigned) | 75.8
CC(=O)OCC1OC(OP(=O)(NCCCl)NCCCl)C(Br)CC1OC(C)=O (single isomer, unassigned) | 80.8

###

Below, each of the compounds is paired with its reported weight start value.
Test system: MX-1 human breast cancer cells
Assay: Mouse transplant tumor, MX-1 human breast cancer;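 also: mice given saline served as the control group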
Settings: 125 mg/kg once a day for 7 days, animal weight at start
Experimental endpoint: weight start

CC(=O)OCC1OC(OP(=O)(NCCCl)NCCCl)C(Br)CC1OC(C)=O (single isomer, unassigned) | 18.3
CC(=O)OCC1OC(Br)C(Br)CC1OC(C)=O (single isomer, unassigned) | 18.2
CC(=O)OCC1OC(OP(=O)(O)N(CCCl)CCCl)CC(Br)C1OC(C)=O (centres unmarked) | 18.3
CC(=O)OCC1OC(OP(=O)(NCCCl)NCCCl)CC(Br)C1OC(C)=O (single isomer, unassigned) | 18.3
CC(=O)OCC1OC(OP(=O)(O)N(CCCl)CCCl)C(Br)CC1OC(C)=O (centres unmarked) | 18.2

###

Below, each of the compounds is paired with its reported weight end value.
System: B16 malignant melanoma
Test: Mouse transplant tumor, B16 malignant melanoma
Conditions: B16, 125 mg/kg once a day for 7 days; body weight at end
Experimental endpoint: weight end

CC(=O)OCC1OC(OP(=O)(NCCCl)NCCCl)C(Br)CC1OC(C)=O (single isomer, unassigned) [Compound 7] | 18.4
CC(=O)OCC1OC(OP(=O)(NCCCl)NCCCl)CC(Br)C1OC(C)=O (single isomer, unassigned) [Compound 5] | 18.6
CC(=O)OCC1OC(OP(=O)(O)N(CCCl)CCCl)CC(Br)C1OC(C)=O (centres unmarked) [Compound 10] | 18.3
CC(=O)OCC1OC(OP(=O)(O)N(CCCl)CCCl)C(Br)CC1OC(C)=O (centres unmarked) [Compound 12] | 18.4
CC(=O)OCC1OC(Br)C(Br)CC1OC(C)=O (single isomer, unassigned) [Compound 3] | 18.3

###

Test system: mouse
Assay: Acute toxicity (LD50), mouse ig
Experimental endpoint: LD50

CC(=O)OCC1OC(OP(=O)(NCCCl)NCCCl)C(Br)CC1OC(C)=O (single isomer, unassigned) [Compound 8] | 2017.5 mg/kg
CC(=O)OCC1OC(OP(=O)(O)N(CCCl)CCCl)C(Br)CC1OC(C)=O (stereo not drawn) [Compound 12] | 2101.4 mg/kg
CC(=O)OCC1OC(Br)C(Br)CC1OC(C)=O (single isomer, unassigned) [Compound 4] | 2389.2 mg/kg
